Test system: LXRa homodimer (NR concentration 270 nM)
Assay: PBM binding z-score (relative to random genomic background probes); higher = stronger binding; sequences stand for … in GC…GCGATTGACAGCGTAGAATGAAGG
I'd appreciate it if you could supply PBM binding z-score values for the items below.
Enter the number alone.

# input Which PBM binding z-score is listed for `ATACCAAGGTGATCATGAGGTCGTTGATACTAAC` ?
# output 0.874

# input `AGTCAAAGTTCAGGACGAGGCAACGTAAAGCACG` ?
# output 1.2

# input `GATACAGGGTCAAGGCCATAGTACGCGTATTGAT` ?
# output 0.059

# input `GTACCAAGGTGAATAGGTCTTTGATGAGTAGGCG` ?
# output -0.168

# input `TCGAGTAGGTTAGTCGGGGCATTCATCCAACATA` ?
# output 0.0686

# input `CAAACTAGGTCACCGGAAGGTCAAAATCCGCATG` ?
# output 4.45

# input `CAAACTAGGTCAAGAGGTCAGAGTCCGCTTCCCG` ?
# output 3.2

# input `TCTTGTAGATCAGCAGGTTTAGAAAGCTGGCCAA` ?
# output -0.52

# input `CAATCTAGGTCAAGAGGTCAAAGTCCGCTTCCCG` ?
# output 6.61

# input `AGAATGAGGTTACCAAAGATCAGGGATACGCTTG` ?
# output 0.0211

# input `TCGAGGAGGTTACCAATGGGGCATTCAGCTTTCT` ?
# output -0.21

# input `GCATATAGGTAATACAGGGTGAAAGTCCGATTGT` ?
# output -0.223

# input `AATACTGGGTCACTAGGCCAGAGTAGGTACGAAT` ?
# output 0.246

# input `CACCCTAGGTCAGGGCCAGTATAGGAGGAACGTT` ?
# output 0.74

# input `GGAAAGAGGGCAAAGTTGATAGCATCTGTCGACG` ?
# output 0.254

# input `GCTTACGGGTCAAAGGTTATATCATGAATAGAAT` ?
# output 1.25

# input `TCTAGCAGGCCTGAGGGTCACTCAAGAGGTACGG` ?
# output -0.547

# input `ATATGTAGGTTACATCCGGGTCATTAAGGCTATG` ?
# output 1.5

# input `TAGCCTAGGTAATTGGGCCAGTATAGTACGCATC` ?
# output -0.581

# input `CCGACTGGGGCGGAAAGGTTACCATACCATCCGG` ?
# output 0.0346

# input `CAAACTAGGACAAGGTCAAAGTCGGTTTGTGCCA` ?
# output 2.08

# input `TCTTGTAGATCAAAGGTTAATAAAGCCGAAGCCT` ?
# output 0.26

# input `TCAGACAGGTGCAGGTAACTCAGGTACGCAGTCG` ?
# output -0.304

# input `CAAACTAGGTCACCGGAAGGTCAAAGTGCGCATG` ?
# output 5.26

# input `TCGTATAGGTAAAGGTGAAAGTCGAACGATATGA` ?
# output 0.11

# input `ACTCGGAGGACAAAGGTCAGACCTACGCCAGTGA` ?
# output 2.02

# input `CCGACTGGGGCAGAAAGGTTACCAGACCATCCGG` ?
# output -0.312

# input `CGAACTAGGTCAGAACAGGACAGTGAGGGATGAT` ?
# output -0.0765

# input `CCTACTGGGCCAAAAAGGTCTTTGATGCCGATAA` ?
# output -0.512

# input `AGAACGAGGGCACGCTGAGTTGACAGCAGAGTAG` ?
# output -0.526

# input `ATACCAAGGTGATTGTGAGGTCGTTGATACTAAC` ?
# output 1.51

# input `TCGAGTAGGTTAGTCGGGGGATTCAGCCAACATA` ?
# output -0.00348

# input `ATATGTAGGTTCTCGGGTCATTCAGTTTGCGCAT` ?
# output 1.35

# input `TGTTGTAGATCAACAGGAGGTTAAGAAAGATCGA` ?
# output 0.018

# input `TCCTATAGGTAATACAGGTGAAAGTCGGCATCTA` ?
# output -0.00145

# input `CCTACTGGGCCACGAAAGGTCATTGATTCAGTGA` ?
# output 4.9

# input `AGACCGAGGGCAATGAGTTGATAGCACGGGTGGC` ?
# output -0.495

# input `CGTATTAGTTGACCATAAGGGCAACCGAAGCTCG` ?
# output 0.259

# input `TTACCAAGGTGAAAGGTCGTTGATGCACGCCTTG` ?
# output 0.252

# input `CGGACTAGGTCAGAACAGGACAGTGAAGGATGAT` ?
# output -0.0673

# input `TCTGACAGGTGAAGGTAACTCAGGTACGCAGTCG` ?
# output -0.123

# input `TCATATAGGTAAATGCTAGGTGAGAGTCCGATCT` ?
# output -0.251

# input `CTCGAAAGGTCGGATGAGGTGAGTATACGGATAA` ?
# output 0.0368

# input `TCTCGGAGGACACGAAAGGTAAGAGCTCGACATC` ?
# output -0.636

# input `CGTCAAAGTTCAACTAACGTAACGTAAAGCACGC` ?
# output 3.62

# input `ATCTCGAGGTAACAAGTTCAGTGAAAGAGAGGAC` ?
# output 0.333

# input `TCTTGTAGATTAGCAGGTTAAGAAAGCTGGCCAA` ?
# output 0.135

# input `CCTAGTTGGTTAGGAGGTCACACACCGGATATGA` ?
# output 2.02

# input `AATACACGGTCACTAGGCCAGAGTAGGTACGAAT` ?
# output 1.32

# input `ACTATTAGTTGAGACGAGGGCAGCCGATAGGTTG` ?
# output -0.315

# input `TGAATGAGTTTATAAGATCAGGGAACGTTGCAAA` ?
# output -0.288
